- Tested on: Vero E6 infected with SARS-CoV-2
- test description: inhibition of SARS-CoV-2 cytopathic effect; higher = more antiviral protection, active = above 15
- condition info: 1 nM; 48 h
metric: inhibition of SARS-CoV-2 cytopathic effect

COc1c2ccoc2cc2oc(=O)ccc12
-0.67% (inactive)
O=C(Nc1ccccc1C(=O)Nc1ccc(CCO)cc1)c1ccc([N+](=O)[O-])cc1
-0.75% (inactive)
C/C(=C\c1csc(C)n1)[C@@H]1C[C@@H]2O[C@]2(C)CCC[C@H](C)[C@H](O)[C@@H](C)C(=O)C(C)(C)[C@@H](O)CC(=O)N1 [ixabepilone]
-3.63% (inactive)
CN(C)CCC=C1c2ccccc2C=Cc2ccccc21
0.3% (inactive)
Nc1ccc(S(=O)(=O)Nc2ccc(Cl)nn2)cc1
0.57% (inactive)
O=C(NC[C@H]1CN(c2ccc(N3CCOCC3=O)cc2)C(=O)O1)c1ccc(Cl)s1
1.99% (inactive)
NCC(=O)N[C@@H](CCC(N)=O)C(=O)O
0.35% (inactive)
Cc1c(C(=O)Nc2ccc(N3C[C@@H](C)O[C@@H](C)C3)nc2)cccc1-c1ccc(OC(F)(F)F)cc1
1.64% (inactive)
CCCCCCCCCCCCCCCCOc1nc2ccc(C)cc2c(=O)o1
2.2% (inactive)
c1ccc2c(c1)OC[C@H](CNCCCOc1ccc3c(c1)OCO3)O2
2.23% (inactive)
CC(=O)O[C@H]1C[C@H](O[C@H]2[C@@H](O)C[C@H](O[C@H]3[C@@H](O)C[C@H](O[C@H]4CC[C@@]5(C)[C@H](CC[C@@H]6[C@@H]5C[C@@H](O)[C@]5(C)[C@@H](C7=CC(=O)OC7)CC[C@]65O)C4)O[C@@H]3C)O[C@@H]2C)O[C@H](C)[C@H]1O[C@@H]1O[C@H](CO)[C@@H](O)[C@H](O)[C@H]1O [lanatoside-C]
0.4% (inactive)
CCCCC(CC)COc1ccc(-c2nc(-c3ccc(OC)cc3)nc(-c3ccc(OCC(CC)CCCC)cc3O)n2)c(O)c1 (configuration not stated)
1.11% (inactive)
NCCCCCc1c[nH]cn1
-2.08% (inactive)
CN1CCc2c(c3ccccc3n2Cc2ccccc2)C1 [mebhydrolin]
-0.15% (inactive)
CC(C)(C)C(=O)/C(=N/c1ccc(Cl)cc1)NNc1ccc(Cl)cc1
1.8% (inactive)
CCOC(=O)c1ncc2[nH]c3ccc(OCc4ccccc4)cc3c2c1COC
2.48% (inactive)
C[C@H](NC(=O)Cc1cc(F)cc(F)c1)C(=O)N[C@@H]1C(=O)N(C)c2ccccc2-c2ccccc21
-2.68% (inactive)
